From: ChEMBL document CHEMBL1158449

Tested on: Splenocyte
Assay Summary: Immunosuppressive activity in splenocytes assessed as inhibition of concanavalin A-induced proliferation after 48 hrs by [3H]thymidine incorporation assay
Format: functional, cell-based
Protocol Conditions: Mus musculus
Reported IC50 values are given for each entry in this list.

[
  {
    "Structure Smiles": "COc1c2c(cc3oc4oc5cc(O)c(O)cc5c4c(=O)c13)OC(C)(C)C=C2",
    "Unit String": "µM",
    "IC50": 0.92
  },
  {
    "Structure Smiles": "COc1c2c(cc3oc(=O)c4c5cc(O)c(O)cc5oc4c13)OC(C)(C)C=C2",
    "Unit String": "µM",
    "IC50": 9.55
  }
]
